assay: Mouse pharmacokinetics after a single oral dose
Format: in vivo
condition details: mouse, in vivo, po; fasted male mice, single p.o. dose 100 mg/kg, 0.5% methyl cellulose suspension, mean ± SD, n = 3; read-out: AUC(Exp), area under the plasma-concentration-time curve
Description: Pharmacokinetics was analyzed after a single oral (p.o.) dose of the compounds (in a 0.5% methyl cellulose suspension) administered to fasted male mice. […] Antiviral activity in vivo was determined using eight-week-old Swiss albino CD-1 female mice (Envigo, Huntingdon, UK). […] Control mice were treated in parallel with drug vehicle (carboxymethylcellulose). […] Animals were monitored daily and received water and food ad libitum.
endpoint label: AUC (ng·h/mL)

compound | reading
COc1ccc2ncc(C(=O)N3CCC4(CC3)CC(=O)c3c(cnn3C(C)C)C4)cc2c1 [PF-06256254] | 2900
CC(C)n1ncc2c1C(=O)CC1(CCN(C(=O)c3cc4ncccc4[nH]3)CC1)C2 [PF-05206574] | 3700

meta.source: paper PMC6493301
